Please go through the items and note down their microsomal CLint at 20 min, 1 µM.
assay: Clearance in mouse liver microsomes at 1 umol/l after 20 mins by LC/MS/MS analysis

// query Supply measured microsomal CLint at 20 min, 1 µM of `CN[C@@H](C)C(=O)N[C@H](C(=O)N1C[C@H]2CC(F)(F)CN2C[C@H]1C(=O)N[C@@H]1CCOc2ccccc21)C1CCC(F)(F)CC1` in your reply.
// result 147 µL/min/mg

// query Please look at this molecule and report its microsomal CLint at 20 min, 1 µM: `CN[C@@H](C)C(=O)N[C@H](C(=O)N1C[C@H]2CCCN2C[C@H]1C(=O)N[C@@H]1CCOc2ccccc21)C1CCCCC1`
// result 116 µL/min/mg

// query Given `CN[C@@H](C)C(=O)N[C@H](C(=O)N1C[C@H]2CCCN2C[C@H]1C(=O)N[C@@H]1CCOc2ccccc21)C1CCOCC1` , respond with its microsomal CLint at 20 min, 1 µM.
// result 21 µL/min/mg

// query Give reported microsomal CLint at 20 min, 1 µM value for `CN[C@@H](C)C(=O)N[C@H](C(=O)N1C[C@H]2CCCN2C[C@H]1C(=O)N[C@@H]1CCOc2ccccc21)C1CCC(F)(F)CC1`
// result 66 µL/min/mg

// query Entry `CN[C@@H](C)C(=O)N[C@H](C(=O)N1C[C@H]2CCCN2C[C@H]1C(=O)N[C@@H]1CCOc2ccccc21)c1ccccc1` needs its microsomal CLint at 20 min, 1 µM filled in; supply it.
// result 129 µL/min/mg

// query Input `CN[C@@H](C)C(=O)N[C@H](C(=O)N1C[C@H]2CCCN2C[C@H]1C(=O)N[C@@H]1CCC(F)(F)c2ccccc21)C1CCCCC1` , output reported microsomal CLint at 20 min, 1 µM.
// result 208 µL/min/mg

====

I'd be grateful if you could share measured microsomal CLint at 20 min, 1 µM for these entries.
test: Clearance in human liver microsomes at 1 umol/l after 20 mins by LC/MS/MS analysis
A number alone suffices; assume µL/min/mg.

// query // Input: `CN[C@@H](C)C(=O)N[C@H](C(=O)N1C[C@@H]2CCCN2C[C@H]1C(=O)N[C@@H]1CCOc2ccccc21)C1CCC(F)(F)CC1` . Output its microsomal CLint at 20 min, 1 µM only.
// result 38

// query Hello, please tell me recorded microsomal CLint at 20 min, 1 µM for this one: `CN[C@@H](C)C(=O)N[C@H](C(=O)N1C[C@H]2CCCN2C[C@H]1C(=O)N[C@@H]1CCOc2ccccc21)C1CCC(F)(F)CC1`
// result 82

// query Tell me microsomal CLint at 20 min, 1 µM reported for `CN[C@@H](C)C(=O)N[C@H](C(=O)N1C[C@H]2CC(F)(F)CN2C[C@H]1C(=O)N[C@@H]1CCOc2ccccc21)C1CCC(F)(F)CC1`
// result 170

// query Retrieve microsomal CLint at 20 min, 1 µM measured for `CN[C@@H](C)C(=O)N[C@H](C(=O)N1C[C@H]2CCCN2C[C@H]1C(=O)N[C@H](C)c1ccccc1)C1CCCCC1` and print it.
// result 82

// query # return recorded microsomal CLint at 20 min, 1 µM for entry `CN[C@@H](C)C(=O)N[C@H](C(=O)N1C[C@H]2CCCN2C[C@H]1C(=O)N[C@@H]1CCCc2ccccc21)C1CCCCC1.Cl.Cl`
// result 218

// query Look up and state reported microsomal CLint at 20 min, 1 µM for `CN[C@@H](C)C(=O)N[C@H](C(=O)N1C[C@H]2C[C@@H](O)CN2C[C@H]1C(=O)N[C@@H]1CCOc2ccccc21)C1CCC(F)(F)CC1`
// result 4

// query Give microsomal CLint at 20 min, 1 µM for `CN[C@@H](C)C(=O)N[C@H](C(=O)N1C[C@H]2CCCN2C[C@H]1C(=O)N[C@@H]1CCOc2ccccc21)c1ccccc1`
// result 90

// query Give the reported microsomal CLint at 20 min, 1 µM for this molecule. `CN[C@@H](C)C(=O)N[C@H](C(=O)N1C[C@H]2CCCN2C[C@H]1C(=O)N[C@H]1CCCc2ccccc21)C1CCCCC1`
// result 236

// query Using known records, supply microsomal CLint at 20 min, 1 µM for `CN[C@@H](C)C(=O)N[C@H](C(=O)N1C[C@H]2CCCN2C[C@H]1C(=O)N[C@@H]1CCC(F)(F)c2ccccc21)C1CCCCC1`
// result 130

// query In one line, give reported microsomal CLint at 20 min, 1 µM of the entry `CN[C@@H](C)C(=O)N[C@H](C(=O)N1C[C@H]2CCCN2C[C@H]1C(=O)N[C@@H]1CCOc2ccccc21)C1CCOCC1` .
// result 15

// query Recall and state the measured microsomal CLint at 20 min, 1 µM for `CN[C@@H](C)C(=O)N[C@H](C(=O)N1C[C@H]2CCCN2C[C@H]1C(=O)N[C@@H]1CCC(=O)c2ccccc21)C1CCCCC1` .
// result 154

// query Using the record for `CN[C@@H](C)C(=O)N[C@H](C(=O)N1C[C@H]2CCCN2C[C@H]1C(=O)N[C@@H]1CCOc2ccccc21)C1CCCCC1` , state its measured microsomal CLint at 20 min, 1 µM.
// result 128

// query Please report microsomal CLint at 20 min, 1 µM for the following molecule: `CCO[C@@H]1C[C@@H]2CN(C(=O)[C@@H](NC(=O)[C@H](C)NC)C3CCC(F)(F)CC3)[C@H](C(=O)N[C@@H]3CCOc4ccccc43)CN2C1`
// result 52

====

assay: Lipophilicity, log D of the compound at pH 7.4; conditions: buffer
Assign Condition met whenever logD does not fall below 2; assign Condition not met whenever it does.

// query Please tell me: is the compound `CN[C@@H](C)C(=O)N[C@H](C(=O)N1C[C@H]2CCCN2C[C@H]1C(=O)N[C@@H]1CCOc2ccccc21)c1ccccc1` at or over 2 in terms of logD?
// result Condition met

// query Please tell me: is the compound `CN[C@@H](C)C(=O)N[C@H](C(=O)N1C[C@@H]2CCCN2C[C@H]1C(=O)N[C@@H]1CCOc2ccccc21)C1CCC(F)(F)CC1` at or over 2 in terms of logD?
// result Condition not met

// query Does `CCO[C@@H]1C[C@@H]2CN(C(=O)[C@@H](NC(=O)[C@H](C)NC)C3CCC(F)(F)CC3)[C@H](C(=O)N[C@@H]3CCOc4ccccc43)CN2C1` have a reported logD of at least 2?
// result Condition met

// query Item `CN[C@@H](C)C(=O)N[C@H](C(=O)N1C[C@H]2CCCN2C[C@H]1C(=O)N[C@@H]1CCOc2ccccc21)C1CCCCC1` with logD of 2 or above?
// result Condition met

// query Hello, I need to know if `CN[C@@H](C)C(=O)N[C@H](C(=O)N1C[C@H]2CC(F)(F)CN2C[C@H]1C(=O)N[C@@H]1CCOc2ccccc21)C1CCC(F)(F)CC1` has measured logD not below 2. Thanks!
// result Condition met

// query Reported logD at or above 2? `CN[C@@H](C)C(=O)N[C@H](C(=O)N1C[C@H]2CCCN2C[C@H]1C(=O)N[C@@H]1CCOc2ccccc21)C1CCC(F)(F)CC1`
// result Condition met

// query Determine whether this compound has logD no lower than 2: `CN[C@@H](C)C(=O)N[C@H](C(=O)N1C[C@H]2CCCN2C[C@H]1C(=O)N[C@@H]1CCOc2ccccc21)C1CCOCC1`
// result Condition not met

// query Check if logD >= 2 (inclusive). Item: `CN[C@@H](C)C(=O)N[C@H](C(=O)N1C[C@H]2C[C@@H](O)CN2C[C@H]1C(=O)N[C@@H]1CCOc2ccccc21)C1CCC(F)(F)CC1`
// result Condition not met

====

test: Oral bioavailability in BALB/cAJcl mouse at 10 mg/kg by LC/MS/MS analysis; assay type: ADME, organism-based; conditions: in vivo
# binarize bioavailability: threshold 10% inclusive, high side Y, low side N

// query Could you tell me if the measured bioavailability of `CCO[C@@H]1C[C@@H]2CN(C(=O)[C@@H](NC(=O)[C@H](C)NC)C3CCC(F)(F)CC3)[C@H](C(=O)N[C@@H]3CCOc4ccccc43)CN2C1` reaches 10% or more?
// result Y

// query Dear colleague, could you confirm whether `CN[C@@H](C)C(=O)N[C@H](C(=O)N1C[C@H]2CCCN2C[C@H]1C(=O)N[C@@H]1CCOc2ccccc21)c1ccccc1` has bioavailability at or above 10%?
// result Y

// query Confirm if bioavailability reported for the compound `CN[C@@H](C)C(=O)N[C@H](C(=O)N1C[C@H]2CCCN2C[C@H]1C(=O)N[C@@H]1CCC(=O)c2ccccc21)C1CCCCC1` is 10% or above.
// result Y

// query Exam item: decide whether the reported bioavailability for `CN[C@@H](C)C(=O)N[C@H](C(=O)N1C[C@H]2CCCN2C[C@H]1C(=O)N[C@@H]1CCCc2ccccc21)C1CCCCC1.Cl.Cl` is at least 10%.
// result N

// query Say whether `CN[C@@H](C)C(=O)N[C@H](C(=O)N1C[C@H]2CCCN2C[C@H]1C(=O)N[C@@H]1CCOc2ccccc21)C1CCOCC1` shows bioavailability of 10% or more.
// result Y
